target: Melanocortin receptor 3 (Homo sapiens); experiment: Agonist activity at human MC3R expressed in HEK2936E cells assessed as cAMP production in presence of IBMX by time resolved fluorescence assay; assay type: functional, cell-based; details: hek2936e
Sequence (P41968 whole entry): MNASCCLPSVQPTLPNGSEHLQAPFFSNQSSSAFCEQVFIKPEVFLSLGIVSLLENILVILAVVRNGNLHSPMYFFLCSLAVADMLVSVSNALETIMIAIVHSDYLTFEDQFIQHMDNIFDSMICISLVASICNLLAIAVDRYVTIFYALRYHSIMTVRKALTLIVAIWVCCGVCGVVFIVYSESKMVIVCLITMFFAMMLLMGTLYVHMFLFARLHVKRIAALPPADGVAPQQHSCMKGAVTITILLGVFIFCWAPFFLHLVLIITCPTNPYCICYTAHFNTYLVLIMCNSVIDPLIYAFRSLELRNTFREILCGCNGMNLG
Measured quantity: pEC50
Keep it simple and answer with nothing but the number.

Lookup: pEC50 / Melanocortin receptor 3 (Homo sapiens) / CC[C@H](C)[C@@H]1NC(=O)[C@@H]2CCCN2C(=O)[C@H](Cc2c[nH]c3ccccc23)NC(=O)[C@H](CCCNC(=N)N)N(C)C(=O)[C@H](Cc2ccccc2)NC(=O)[C@H](Cc2cnc[nH]2)NC(=O)[C@H]([C@@H](C)O)NC(=O)[C@H](NC(C)=O)CCSCc2ccc(cc2)CSCC[C@H](C(N)=O)NC1=O
6.3

Look up pEC50 with Melanocortin receptor 3 (Homo sapiens) for this compound: CC[C@H](C)[C@@H]1NC(=O)[C@@H]2CCCN2C(=O)[C@H](Cc2c[nH]c3ccccc23)NC(=O)[C@H](CCCNC(=N)N)N(C)C(=O)[C@H](Cc2ccccc2)NC(=O)[C@H](Cc2cnc[nH]2)NC(=O)[C@H]([C@@H](C)O)NC(=O)[C@H](NC(C)=O)CCSSCC[C@H](C(N)=O)NC1=O
6.72

Notebook entry, Melanocortin receptor 3 (Homo sapiens) assay: pEC50 of CC[C@H](C)[C@@H]1NC(=O)[C@@H]2CCCN2C(=O)[C@H](Cc2c[nH]c3ccccc23)NC(=O)[C@H](CCCNC(=N)N)N(C)C(=O)[C@H](Cc2ccccc2)NC(=O)[C@H](Cc2cnc[nH]2)NC(=O)[C@H]([C@@H](C)O)NC(=O)[C@H](NC(C)=O)CCSCc2cccc(c2)CSCC[C@H](C(N)=O)NC1=O = ?
6.42

Request - read-out pEC50 | tested on Melanocortin receptor 3 (Homo sapiens) | compound CC[C@H](C)[C@@H]1NC(=O)[C@@H]2CCCN2C(=O)[C@H](Cc2c[nH]c3ccccc23)NC(=O)[C@H](CCCNC(=N)N)N(C)C(=O)[C@H](Cc2ccccc2)NC(=O)[C@H](Cc2cnc[nH]2)NC(=O)[C@H]([C@@H](C)O)NC(=O)[C@H](NC(C)=O)CCSCc2ccccc2CSCC[C@H](C(N)=O)NC1=O
6.34
